- Test system: Plasmodium falciparum NF54
- measurement description: growth inhibition relative to untreated control; higher = more inhibition
- assay setup: 1 µM; minimal medium (MM); 72 h
Catalogue of compounds with associated growth inhibition
endpoint label: growth inhibition (%)

# molecular string, endpoint label, relation operator, recorded value
data = [
    ("CC(C)(C(=O)Nc1ccc(F)cc1)n1cc(-c2ccccc2F)cn1", "growth inhibition", "<", 0),
    ("Cc1cc(C(=O)Nc2ccc(-c3ccccc3)cc2)no1", "growth inhibition", "=", 91.1),
    ("CC(C)(C)CN1C(=O)C(c2ccccc2)(c2ccccc2)N=C1N", "growth inhibition", "=", 45.7),
    ("COc1ccc(S(=O)(=O)Nc2ccc(CN3CCN(C(=O)c4cccc(C#N)c4)CC3)cc2)cc1", "growth inhibition", "<", 0),
    ("CS(=O)(=O)c1ccccc1C(=O)N(Cc1ccccc1)c1ccccc1", "growth inhibition", "=", 7.57),
    ("Cc1cc(C)n2nc(C(=O)Nc3cc(C(F)(F)F)ccc3N3CCOCC3)nc2n1", "growth inhibition", "=", 77.1),
    ("Nc1ncc(-c2cn[nH]c2)cc1-c1nc2cc(Cl)cnc2[nH]1", "growth inhibition", "=", 97),
    ("COc1ccc(OC)c(NCc2ccc3nc(N)nc(N)c3c2Cl)c1", "growth inhibition", ">", 100),
    ("COc1cc(NC(=O)Cc2nn(C)c(=O)c3ccccc23)ccc1Cl", "growth inhibition", "=", 5.71),
    ("CN(C)CCNC(=O)N1CCCN(c2ncnc3cc(-c4ccccc4)sc23)CC1", "growth inhibition", "=", 99.2),
    ("c1ccc(Oc2ccc(-c3cc(N4CCOCC4)[nH]n3)cc2)cc1", "growth inhibition", "<", 0),
]
